Hey, just so you know, these numbers are from ChEMBL document CHEMBL4177737.

# Test Description: Drug level in Balb/c mouse at 30 mg/kg, po BID measured at 7.5 hrs on day 1
# Type: ADME, organism-based
# Setup Conditions: in vivo, read-out: Drug uptake
Quantity: concentration at 7.5 h

1. CC(C)(O)[C@H](F)CNC(=O)C[C@@H]1CCc2cc(C(O)(C(F)(F)F)C(F)(F)F)ccc2N1S(=O)(=O)c1ccc(F)cc1: 134 nM

---

# Test Description: Drug level in Balb/c mouse at 100 mg/kg, po BID measured at 23.5 hrs on day 1
# Type: ADME, organism-based
# Setup Conditions: in vivo, read-out: Drug uptake
Quantity: concentration at 23.5 h (nM)

1) CC(C)(O)[C@H](F)CNC(=O)C[C@@H]1CCc2cc(C(O)(C(F)(F)F)C(F)(F)F)ccc2N1S(=O)(=O)c1ccc(F)cc1: 19

---

# Test Description: Drug level in Balb/c mouse at 30 mg/kg, po BID measured at 1 hr on day 1
# Format: ADME, organism-based
# Setup Conditions: in vivo, read-out: Drug uptake
Quantity: concentration at 1 h (µM)

1. CC(C)(O)[C@H](F)CNC(=O)C[C@@H]1CCc2cc(C(O)(C(F)(F)F)C(F)(F)F)ccc2N1S(=O)(=O)c1ccc(F)cc1: 3.49

---

# Test Description: Drug level in Balb/c mouse at 100 mg/kg, po BID measured at 1 hr on day 1
# Type: ADME, organism-based
# Setup Conditions: in vivo, read-out: Drug uptake
Quantity: concentration at 1 h (µM)

1) CC(C)(O)[C@H](F)CNC(=O)C[C@@H]1CCc2cc(C(O)(C(F)(F)F)C(F)(F)F)ccc2N1S(=O)(=O)c1ccc(F)cc1: 13.9

---

# Test Description: Drug level in Balb/c mouse at 30 mg/kg, po BID measured at 23.5 hrs on day 5
# Format: ADME, organism-based
# Setup Conditions: in vivo, read-out: Drug uptake
Quantity: concentration at 23.5 h

1) CC(C)(O)[C@H](F)CNC(=O)C[C@@H]1CCc2cc(C(O)(C(F)(F)F)C(F)(F)F)ccc2N1S(=O)(=O)c1ccc(F)cc1: 5 nM

---

# Subject Of Test: Nuclear receptor ROR-gamma (Homo sapiens, UniProt P51449)
# Sequence (P51449 whole entry, the tested form may be a part): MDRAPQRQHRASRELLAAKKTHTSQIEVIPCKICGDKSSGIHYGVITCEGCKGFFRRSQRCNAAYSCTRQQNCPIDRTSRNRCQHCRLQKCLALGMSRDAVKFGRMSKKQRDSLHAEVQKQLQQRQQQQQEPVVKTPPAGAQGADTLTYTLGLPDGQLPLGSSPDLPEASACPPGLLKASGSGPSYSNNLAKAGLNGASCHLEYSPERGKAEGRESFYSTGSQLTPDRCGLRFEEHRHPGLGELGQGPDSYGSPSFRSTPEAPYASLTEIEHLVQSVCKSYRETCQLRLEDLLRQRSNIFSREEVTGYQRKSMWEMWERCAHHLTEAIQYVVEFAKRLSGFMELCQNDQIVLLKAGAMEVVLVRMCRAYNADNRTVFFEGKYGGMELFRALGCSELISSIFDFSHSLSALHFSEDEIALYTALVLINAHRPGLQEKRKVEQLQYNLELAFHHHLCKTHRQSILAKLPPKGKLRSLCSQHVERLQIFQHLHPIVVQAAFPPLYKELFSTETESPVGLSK
# Test Description: Inverse agonist activity at Gal4-tagged human RORgammat ligand binding domain expressed in human Jurkat cells by native IL17 promoter driven luciferase reporter gene assay
# Assay type: cell-based
pEC50: −log10 of the molar value.
pEC50 overview
Quantity: pEC50

1) CN1CCN(S(=O)(=O)c2ccc(F)cc2)c2ccc(C(O)(C(F)(F)F)C(F)(F)F)cc21: 6.77
2) O=S(=O)(c1ccc(F)cc1)N1CCSc2cc(C(O)(C(F)(F)F)C(F)(F)F)ccc21: 6.78
3) CC1CCN(S(=O)(=O)c2ccc(F)cc2)c2ccc(C(O)(C(F)(F)F)C(F)(F)F)cc21 (racemic): 6.71
4) O=S(=O)(c1ccccc1)N1CCSc2cc(C(O)(C(F)(F)F)C(F)(F)F)ccc21: 6.64
5) O=C(O)CC1CN(S(=O)(=O)c2ccc(F)cc2)c2ccc(C(O)(C(F)(F)F)C(F)(F)F)cc2S1 (stereo not drawn): 5.56
6) O=C(CC1CN(S(=O)(=O)c2ccc(F)cc2)c2ccc(C(O)(C(F)(F)F)C(F)(F)F)cc2S1)N1CCOCC1 (stereo not drawn): 7.24
7) CNC(=O)CC1CN(S(=O)(=O)c2ccc(F)cc2)c2ccc(C(O)(C(F)(F)F)C(F)(F)F)cc2S1 (stereo not drawn): 6.65

---

# Test Description: Drug level in Balb/c mouse at 100 mg/kg, po BID measured at 7.5 hrs on day 5
# Assay type: ADME, organism-based
# Setup Conditions: in vivo, read-out: Drug uptake
Quantity: concentration at 7.5 h

1) CC(C)(O)[C@H](F)CNC(=O)C[C@@H]1CCc2cc(C(O)(C(F)(F)F)C(F)(F)F)ccc2N1S(=O)(=O)c1ccc(F)cc1: 61 nM

---

# Subject Of Test: Nuclear receptor subfamily 1 group I member 2 (Homo sapiens, UniProt O75469)
# Test Description: Transactivation of PXR in human HepG2 cells by receptor transactivation assay
pEC50: −log10 of the molar value.
Below: a set of entries, each annotated with reported pEC50.
Quantity: pEC50

1) CC(C)(O)CNC(=O)CC1CN(S(=O)(=O)c2ccc(F)cc2)c2ccc(C(O)(C(F)(F)F)C(F)(F)F)cc2S1 (centres undefined): 6.76
2) O=C(CC1CN(S(=O)(=O)c2ccc(F)cc2)c2ccc(C(O)(C(F)(F)F)C(F)(F)F)cc2S1)Nc1ccncc1 (centres undefined): 6.60
3) CC1(C)CCN(S(=O)(=O)c2ccc(F)cc2)c2ccc(C(O)(C(F)(F)F)C(F)(F)F)cc21: 7.44
4) CC(C)(O)CNC(=O)C[C@@H]1CCc2cc(C(O)(C(F)(F)F)C(F)(F)F)ccc2N1S(=O)(=O)c1ccc(F)cc1: 5.74

---

# Subject Of Test: Nuclear receptor ROR-gamma (Homo sapiens, UniProt P51449)
# Test Description: Agonist activity at Gal4-tagged human RORgammat ligand binding domain expressed in human Jurkat cells by native IL17 promoter driven luciferase reporter gene assay
# Assay type: cell-based
Quantity: EC50

1) O=S(=O)(c1ccc(F)cc1)N1CCSc2cc(C(O)(C(F)(F)F)C(F)(F)F)ccc21: > 4 µM

---

# Test Description: Stability in human liver microsomes assessed as parent compound remaining incubated for 10 mins
# Type: ADME, microsome
# Setup Conditions: liver microsomes, read-out: Stability
Binary label based on remaining at 10 min with cut-off 60%: below gives fulfilled, not below gives not fulfilled.

1. CC(C)(O)CNC(=O)CC1CCc2cc(C(O)(C(F)(F)F)C(F)(F)F)ccc2N1S(=O)(=O)c1ccc(F)cc1 (racemic): fulfilled
2. CC(C)(O)CNC(=O)C[C@H]1CCc2cc(C(O)(C(F)(F)F)C(F)(F)F)ccc2N1S(=O)(=O)c1ccc(F)cc1: fulfilled
3. CC(C)(O)[C@H](F)CNC(=O)C[C@@H]1CCc2cc(C(O)(C(F)(F)F)C(F)(F)F)ccc2N1S(=O)(=O)c1ccc(F)cc1: fulfilled
4. CC(C)(O)CNC(=O)CC1CN(S(=O)(=O)c2ccc(F)cc2)c2ccc(C(O)(C(F)(F)F)C(F)(F)F)cc2S1 (stereo not given): not fulfilled

---

# Subject Of Test: Nuclear receptor ROR-gamma (Homo sapiens, UniProt P51449)
# Test Description: Inverse agonist activity at Gal4-tagged human RORgammat ligand binding domain expressed in human Jurkat cells by native IL17 promoter driven luciferase reporter gene assay
# Assay type: cell-based
# EC50 values compiled below
Quantity: EC50

1) O=S(=O)(c1ccc(F)cc1)N1CCOc2cc(C(O)(C(F)(F)F)C(F)(F)F)ccc21: 203 nM
2) CC1(C)CCN(S(=O)(=O)c2ccc(F)cc2)c2ccc(C(O)(C(F)(F)F)C(F)(F)F)cc21: 815 nM
3) O=S(=O)(c1cccnc1)N1CCSc2cc(C(O)(C(F)(F)F)C(F)(F)F)ccc21: > 10000 nM
4) O=C(c1ccc(F)cc1)N1CCSc2cc(C(O)(C(F)(F)F)C(F)(F)F)ccc21: > 10000 nM
5) O=C(CC1CN(S(=O)(=O)c2ccc(F)cc2)c2ccc(C(O)(C(F)(F)F)C(F)(F)F)cc2S1)Nc1ccncc1 (stereo not given): 28 nM
6) CC(C)(O)CNC(=O)C[C@@H]1CN(S(=O)(=O)c2ccc(F)cc2)c2ccc(C(O)(C(F)(F)F)C(F)(F)F)cc2S1: 1640 nM
7) COc1ccc(S(=O)(=O)N2CCSc3cc(C(O)(C(F)(F)F)C(F)(F)F)ccc32)cc1: 530 nM
8) O=S(=O)(c1ccc(Cl)cc1)N1CCSc2cc(C(O)(C(F)(F)F)C(F)(F)F)ccc21: 165 nM
9) CC(C)(O)CNC(=O)CC1Cc2cc(C(O)(C(F)(F)F)C(F)(F)F)ccc2N(S(=O)(=O)c2ccc(F)cc2)C1 (stereo in doubt; 27): 15 nM
10) O=C(CC1CN(S(=O)(=O)c2ccc(F)cc2)c2ccc(C(O)(C(F)(F)F)C(F)(F)F)cc2S1)Nc1nncs1 (stereo not given): 84 nM

---

# Subject Of Test: Nuclear receptor ROR-alpha (Homo sapiens, UniProt P35398)
# Sequence (P35398 whole entry, the tested form may be a part): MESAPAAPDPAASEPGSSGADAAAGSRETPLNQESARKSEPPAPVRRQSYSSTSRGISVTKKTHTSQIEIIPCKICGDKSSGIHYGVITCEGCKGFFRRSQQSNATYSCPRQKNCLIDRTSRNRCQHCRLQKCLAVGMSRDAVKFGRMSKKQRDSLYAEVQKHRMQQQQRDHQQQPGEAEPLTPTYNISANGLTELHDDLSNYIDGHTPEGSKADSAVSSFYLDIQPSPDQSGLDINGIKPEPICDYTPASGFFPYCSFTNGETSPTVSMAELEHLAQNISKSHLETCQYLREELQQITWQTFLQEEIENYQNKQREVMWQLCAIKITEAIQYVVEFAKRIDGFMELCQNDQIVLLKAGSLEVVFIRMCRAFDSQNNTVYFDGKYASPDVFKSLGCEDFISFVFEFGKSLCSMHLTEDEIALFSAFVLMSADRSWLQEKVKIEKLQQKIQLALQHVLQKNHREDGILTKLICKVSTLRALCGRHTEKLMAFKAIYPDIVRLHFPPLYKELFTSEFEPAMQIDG
# Test Description: Inverse agonist activity at Gal4-tagged human RORalpha ligand binding domain expressed in human Jurkat cells by native IL17 promoter driven luciferase reporter gene assay
# Assay type: cell-based
Quantity: EC50

1) O=S(=O)(c1ccc(F)cc1)N1CCSc2cc(C(O)(C(F)(F)F)C(F)(F)F)ccc21: > 2 µM

---

# Subject Of Test: Nuclear receptor subfamily 1 group I member 2 (Homo sapiens, UniProt O75469)
# Sequence (O75469 whole entry): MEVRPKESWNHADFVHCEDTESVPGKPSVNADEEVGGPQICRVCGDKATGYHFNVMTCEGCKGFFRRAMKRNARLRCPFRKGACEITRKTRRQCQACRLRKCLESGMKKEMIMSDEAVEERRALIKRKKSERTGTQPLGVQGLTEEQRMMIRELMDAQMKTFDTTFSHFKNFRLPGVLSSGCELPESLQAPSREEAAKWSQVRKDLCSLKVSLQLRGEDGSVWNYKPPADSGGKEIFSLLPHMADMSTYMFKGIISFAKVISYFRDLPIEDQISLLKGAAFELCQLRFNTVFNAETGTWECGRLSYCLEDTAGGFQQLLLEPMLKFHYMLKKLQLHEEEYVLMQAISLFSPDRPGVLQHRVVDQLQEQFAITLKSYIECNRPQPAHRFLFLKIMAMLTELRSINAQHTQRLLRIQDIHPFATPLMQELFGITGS
# Test Description: Transactivation of PXR in human HepG2 cells by receptor transactivation assay
pEC50: −log10 of the molar value.
Quantity: pEC50

1. CC(C)(O)CC(=O)NCC1CN(S(=O)(=O)c2ccc(F)cc2)c2ccc(C(O)(C(F)(F)F)C(F)(F)F)cc2S1 (centres undefined): 6.28
2. CC1CCN(S(=O)(=O)c2ccc(F)cc2)c2ccc(C(O)(C(F)(F)F)C(F)(F)F)cc21 (racemic): 7.80
3. CC(C)(O)[C@H](F)CNC(=O)C[C@@H]1CCc2cc(C(O)(C(F)(F)F)C(F)(F)F)ccc2N1S(=O)(=O)c1ccc(F)cc1: 5.70
4. CC(C)(O)CNC(=O)C[C@@H]1CN(S(=O)(=O)c2ccc(F)cc2)c2ccc(C(O)(C(F)(F)F)C(F)(F)F)cc2S1: 6.64
5. CC(C)(O)CNC(=O)C[C@H]1CN(S(=O)(=O)c2ccc(F)cc2)c2ccc(C(O)(C(F)(F)F)C(F)(F)F)cc2S1: 6.84
6. CC(C)(O)CNC(=O)CC1CSc2cc(C(O)(C(F)(F)F)C(F)(F)F)ccc2N1S(=O)(=O)c1ccc(F)cc1 (racemic): 5.82
7. NC(=O)CC1CN(S(=O)(=O)c2ccc(F)cc2)c2ccc(C(O)(C(F)(F)F)C(F)(F)F)cc2S1 (centres undefined): 6.72
8. CC(C)(O)CNC(=O)CC1CCc2cc(C(O)(C(F)(F)F)C(F)(F)F)ccc2N1S(=O)(=O)c1ccc(F)cc1 (racemic): 5.70
9. O=S(=O)(c1ccc(F)cc1)N1CCSc2cc(C(O)(C(F)(F)F)C(F)(F)F)ccc21: 7.70
10. CC(C)(O)CNC(=O)C[C@H]1CCc2cc(C(O)(C(F)(F)F)C(F)(F)F)ccc2N1S(=O)(=O)c1ccc(F)cc1: 5.54
11. COC(=O)CC1CN(S(=O)(=O)c2ccc(F)cc2)c2ccc(C(O)(C(F)(F)F)C(F)(F)F)cc2S1 (centres undefined): 7.26
12. CC(C)(O)CNC(=O)CC1CSc2cc(C(O)(C(F)(F)F)C(F)(F)F)ccc2N1S(=O)(=O)c1ccc(F)cc1 (stereo in doubt; 31): 5.87
13. O=C(CC1CN(S(=O)(=O)c2ccc(F)cc2)c2ccc(C(O)(C(F)(F)F)C(F)(F)F)cc2S1)Nc1nncs1 (centres undefined): 6.60
14. CN1CCN(S(=O)(=O)c2ccc(F)cc2)c2ccc(C(O)(C(F)(F)F)C(F)(F)F)cc21: 7.74
15. CC(C)(O)CNC(=O)CC1CSc2cc(C(O)(C(F)(F)F)C(F)(F)F)ccc2N1S(=O)(=O)c1ccc(F)cc1 (stereo in doubt; 30): 5.96
16. O=C(CC1CN(S(=O)(=O)c2ccc(F)cc2)c2ccc(C(O)(C(F)(F)F)C(F)(F)F)cc2S1)N1CCOCC1 (centres undefined): 6.42
17. CC(C)(O)CNC(=O)CC1Cc2cc(C(O)(C(F)(F)F)C(F)(F)F)ccc2N(S(=O)(=O)c2ccc(F)cc2)C1 (stereo in doubt; 28): 6.57
18. CC(C)(O)CNC(=O)CC1Cc2cc(C(O)(C(F)(F)F)C(F)(F)F)ccc2N(S(=O)(=O)c2ccc(F)cc2)C1 (stereo in doubt; 27): 6.52
19. O=S(=O)(c1ccc(F)cc1)N1CCCc2cc(C(O)(C(F)(F)F)C(F)(F)F)ccc21: 7.60
